# System: MALME-3M melanoma
# assay_procedure: NCI-60 one-dose screen, 48 h (100 = growth as untreated, 0 = no growth, -100 = all killed)
# condition_label: 10 µM unless noted
Compounds without any hit were thinned out: in the full panel of roughly 83,000, 20% have a hit.
Classify by growth. Ranges: c1: < 50%; c2: ≥ 50% and < 90%; c3: ≥ 90%

* COC1=CC(c2ccc[nH]2)=N/C1=C\c1[nH]c(C)c(C)c1CCC(=O)OCc1ccccc1 | c1
* CSc1nc2ccccc2cc1/C=[N+](\[O-])c1ccccc1 | c1
* CCCCCN1C(=O)/C(=c2\sc3n(c2=O)C2C(NN=3)N(CC)C(=O)N2CC)c2ccccc21 (stereo unspecified) | c1
* O=C(Nc1cccc(Cl)c1)Nc1cccc(Cn2c(=O)[nH]c3ccc(Oc4ncccn4)cc3c2=O)c1 | c2
* N#CC1=C(N)Oc2c(ccc3ccccc23)C1c1ccccc1 (stereo unspecified) | c1

Classify this molecule: `CCOC(=O)c1cc(C)n(-c2ccc(C(=O)O)cc2)c1C`
c3

# bin lookup: classify COc1ccc2c(c1)N(CCO)C1=C(C(=O)OC1)C2c1cccc(F)c1 (stereo unspecified) by its growth
c2

Category lookup for the molecule `COc1ccc(Nc2ncc(Br)c(NCCCNC(=O)C3CCCC3)n2)cc1`
c2

Which class is correct for the following molecule? `N#Cc1nc(-c2ccc(F)cc2)oc1S(=O)(=O)N1CCCCC1`
c1

// bin(item) where item = `CC/C(=C(/c1ccc(Cl)cc1)c1ccc(OCCN2CCCCC2)cc1)c1ccc(OC)cc1`
c2

Which band does `Cc1cc(=O)oc2cc(OCc3nn4c(Nc5nc6ccccc6s5)c(-c5ccccc5)nc4s3)ccc12` fall in?
c3

Sort `Cc1c2cnccc2c(C)c2c1c1cc(C#N)ccc1n2C` into one of the categories.
c1

Band of `COc1cccc(CNc2ccc3ncnc(Nc4ccc(F)c(Cl)c4)c3c2)c1` ?
c2

Looking at `COCCOc1cc2ncnc(N3CCN(c4cc(S(C)(=O)=O)c(C)cc4Cl)CC3)c2cc1OCCOC` , which class would you pick?
c2

Band of `CCc1ccccc1-n1c(-c2ccc(OC)cc2)cc(-c2ccc(OC)cc2)c(C#N)c1=O` ?
c3

# bin lookup: classify `CCOC(=O)c1cc2c(n1C)-c1nc(NC(C)=O)sc1CCC2` by its growth
c3

Pick a category. Item: `COc1ccc(C2=C(Nc3ccc(C(=O)Nc4ccccc4)cc3)C(=O)N(C)C2=O)cc1`
c3

Looking at `Cc1[nH]c(C(=O)Nc2ccccc2OC2CCNCC2)c(Cl)c1Cl` , which class would you pick?
c1

----------
# Test system: NCI-H322M lung
# assay_procedure: NCI-60 one-dose screen, 48 h (100 = growth as untreated, 0 = no growth, -100 = all killed)
# condition_label: 10 µM unless noted
Compounds without any hit were thinned out: in the full panel of roughly 83,000, 20% have a hit.
Strictly below 60% in growth: Y. Otherwise: N.

- NC(=O)c1cc(I)ccc1NC(=O)/C=C/c1ccccc1: Y
- COc1ccc2c(c1)N(CCO)C1=C(C(=O)OC1)C2c1cccc(F)c1 (configuration not stated): Y
- C=C1C(=O)O[C@H]2[C@H]1CC/C(COC(=O)NCc1ccc(Cn3c(=O)sn(CCCCC)c3=O)cc1)=C\CC[C@@]1(C)O[C@@H]21: N
- CSc1nc2ncc([N+](=O)[O-])c(=O)n2[nH]1: N
- CCOC(=O)[C@@H]1CSC(CC)=C(C(=O)O)N1: N
- CC(=O)c1c(C)nc(SCC(=O)Nc2cccc(O)c2)n1-c1ccc(Cl)cc1: N

Consider the compound CCCCCCCCCCC(CN(CC)CC)C(O)c1ccccc1 (configuration not stated) . Is its growth strictly less than 60%?
N
